The reported numbers originate from the RepoRT retention time repository (doi:10.1007/s00216-021-03828-0).

Experiment: RP, Merck Supelco Ascentis Express C18, 100 × 2.1 mm, 2 µm, 40 °C, 0.25 mL/min, estimated dead time 0.88 min; A: water + 0.1% formic acid, pH 3; B: acetonitrile + 0.1% formic acid, pH 3; gradient (min/%B) 0/5 2/5 17/99.9 20/99.9
Conditions: stereoisomer not certain
Tick yes (1) if LC retention time is 7 min or greater. Tick no (0) if LC retention time is less than 7 min.

[[record]]
compound = "CC(CCC(=O)O)C1CCC2C3CCC4CC(O)CCC4(C)C3CCC12C (stereo not given) [LITHOCHOLATE]"
category_label = "yes (1)"

[[record]]
compound = "O=C(O)CCCCCCCC(=O)O [AZELATE]"
category_label = "no (0)"

[[record]]
compound = "CCC=CCC1C(=O)CCC1CC(=O)OC (stereo not given) [METHYL JASMONATE]"
category_label = "yes (1)"

[[record]]
compound = "CCCCCCCCCC(=O)O [DECANOATE]"
category_label = "yes (1)"

[[record]]
compound = "NC(=O)Cc1c[nH]c2ccccc12 [INDOLE-3-ACETAMIDE]"
category_label = "no (0)"

[[record]]
compound = "O=C1CCCCO1 [5-VALEROLACTONE]"
category_label = "no (0)"


Reported LC retention time reaches at least 7 min for NC(Cc1cc(I)c(Oc2ccc(O)c(I)c2)c(I)c1)C(=O)O (stereo not given) [LIOTHYRONINE] ? yes (1)

Reported LC retention time reaches at least 7 min for CC(C)=CCCC(C)=CCCC(C)=CCCC=C(C)CCC=C(C)CCC=C(C)C [SQUALENE] ? yes (1)

Reported LC retention time reaches at least 7 min for CCCCCCSCC(NC(=O)CCC(N)C(=O)O)C(=O)NCC(=O)O (stereo not given) [S-HEXYL-GLUTATHIONE] ? no (0)

Reported LC retention time reaches at least 7 min for O=CCc1c[nH]c2ccccc12 [INDOLEACETALDEHYDE] ? no (0)

###

Experiment: RP, Merck Supelco Ascentis Express C18, 100 × 2.1 mm, 2 µm, 40 °C, 0.4 mL/min, estimated dead time 0.55 min; A: water + 0.1% formic acid, pH 3; B: acetonitrile + 0.1% formic acid, pH 3; gradient (min/%B) 0/5 2/5 17/99.9 20/99.9
Conditions: stereoisomer not certain
READOUT KIND: log10 LC retention time (log10 of the value in min)
Hi team, quick reminder: these entries are log10 of LC retention time (min).

[[record]]
compound = "CCCCCCCCCCCCCC(=O)OCC(O)CO (stereo unspecified) [GLYCEROL-MYRISTATE]"
observed_value = 1.12


Now take the following compound into account.
Give a short answer stating reported log10 LC retention time for CCCCCCCCC=CCCCCCCCC(=O)OCC(O)CO (stereo unspecified) [OLEOYL-GLYCEROL] . 1.18

###

Assay: RP, Merck Supelco Ascentis Express C18, 100 × 2.1 mm, 2 µm, 40 °C, 0.25 mL/min, estimated dead time 0.88 min; A: water + 0.1% formic acid, pH 3; B: acetonitrile + 0.1% formic acid, pH 3; gradient (min/%B) 0/5 2/5 17/99.9 20/99.9
Conditions: stereoisomer not certain
READOUT KIND: LC retention time (min)
Write the number in min without appending the unit.

Illustrative cases are given below, each with its answer.
[[record]]
compound = "CCCCCCCCC(=O)[O-] [NONANOATE]"
readout_kind = "LC retention time"
observed_value = 11.1

[[record]]
compound = "O=C(O)c1ccc2ccccc2c1O [1-HYDROXY-2-NAPHTHOATE]"
readout_kind = "LC retention time"
observed_value = 9.77

[[record]]
compound = "CNCCc1c[nH]c2ccccc12"
readout_kind = "LC retention time"
observed_value = 4.33

[[record]]
compound = "CSCCC(O)C(=O)O (configuration not stated) [2-HYDROXY-4-(METHYLTHIO)BUTANOATE]"
readout_kind = "LC retention time"
observed_value = 3

[[record]]
compound = "O=C(O)C(O)c1ccccc1 (configuration not stated) [MANDELATE]"
readout_kind = "LC retention time"
observed_value = 4.19

[[record]]
compound = "NCC(O)c1ccccc1 (configuration not stated)"
readout_kind = "LC retention time"
observed_value = 1.09


Now take the following compound into account.
Give a short answer stating reported LC retention time for "Nc1nc2nc[nH]c2c(=O)[nH]1" . 1.09

###

Test: RP, Merck Supelco Ascentis Express C18, 100 × 2.1 mm, 2 µm, 39 °C, 0.3 mL/min, estimated dead time 0.73 min; A: water + 0.1% formic acid, pH 3; B: acetonitrile + 0.1% formic acid, pH 3; gradient (min/%B) 0/5 2/5 17/99.9 20/99.9
Settings: stereoisomer not certain
READOUT KIND: LC retention time

Illustrative cases are given below, each with its answer.
[[record]]
compound = "CCC(C)C(N)C(=O)O (configuration not stated)"
observed_value = "0.93 min"

[[record]]
compound = "CCCCCCCCC=CCCCCCCCCCCCCCC(=O)[O-] [NERVONATE]"
observed_value = "18.2 min"

[[record]]
compound = "NCC(=O)CCC(=O)O [5-AMINOLEVULINATE]"
observed_value = "1.01 min"

[[record]]
compound = "CNCCc1c[nH]c2ccccc12"
observed_value = "3.89 min"

[[record]]
compound = "N[C@@H](Cc1cc(I)c(O)c(I)c1)C(=O)O"
observed_value = "4.54 min"


Give a short answer stating reported LC retention time for O=c1[nH]cnc2c1ncn2C1OC(CO)C(O)C1O (configuration not stated) . 0.943 min

Give a short answer stating reported LC retention time for O=c1[nH]c(=O)c2ncn(C3OC(CO)C(O)C3O)c2[nH]1 (configuration not stated) . 1.05 min

Give a short answer stating reported LC retention time for O=C(O)C(=O)Cc1ccccc1 [PHENYLPYRUVATE] . 4.98 min

Give a short answer stating reported LC retention time for NCC(O)c1ccccc1 (configuration not stated) . 0.883 min

Give a short answer stating reported LC retention time for NC(=O)[C@@H](N)Cc1c[nH]c2ccccc12 [L-TRYPTOPHANAMIDE] . 2.02 min

Give a short answer stating reported LC retention time for CC(=O)OCC(=O)C1(O)CCC2C3CCC4=CC(=O)CCC4(C)C3C(O)CC21C (configuration not stated) [CORTISOL 21-ACETATE] . 8.64 min

Give a short answer stating reported LC retention time for CCCCCCC=CCCCCCCCC(=O)[O-] [PALMITOLEATE] . 15.3 min

Give a short answer stating reported LC retention time for O=C(O)CCCCCCCCCCCO [OMEGA-HYDROXYDODECANOATE] . 8.71 min

###

Test: RP, Merck Supelco Ascentis Express C18, 100 × 2.1 mm, 2 µm, 40 °C, 0.35 mL/min, estimated dead time 0.63 min; A: water + 0.1% formic acid, pH 3; B: acetonitrile + 0.1% formic acid, pH 3; gradient (min/%B) 0/5 2/5 17/99.9 20/99.9
Conditions: stereoisomer not certain
Where a name gives a salt, the structure may show the parent alone.
READOUT KIND: LC retention time (min)
Write the number in min without appending the unit.

Illustrative cases are given below, each with its answer.
[[record]]
compound = "COC(=O)Cc1c[nH]c2ccccc12 [INDOLE-3-METHYL ACETATE]"
observed_value = 8.75

[[record]]
compound = "O=C(O)CCCCC(=O)O [ADIPATE]"
observed_value = 2.33

[[record]]
compound = "CC1OC(n2cnc3c(N)ncnc32)C(O)C1O (configuration not stated) [5'-DEOXYADENOSINE]"
observed_value = 1.09

[[record]]
compound = "Cc1ncc(CO)c(C(=O)O)c1O [4-PYRIDOXATE]"
observed_value = 0.877

[[record]]
compound = "CC12CCC(=O)C=C1CCC1C2C(O)CC2(C)C1CCC2(O)C(=O)CO (configuration not stated) [CORTISOL]"
observed_value = 6.88

[[record]]
compound = "CC(CCC(=O)O)C1CCC2C3CCC4CC(O)CCC4(C)C3CCC12C (configuration not stated) [LITHOCHOLATE]"
observed_value = 12.7


Give a short answer stating reported LC retention time for N[C@@H](Cc1cc(I)c(O)c(I)c1)C(=O)O [3,5-DIIODO-L-TYROSINE] . 4.26

Give a short answer stating reported LC retention time for CCCCCCCCCCCCCCCC(=O)O [PALMITATE] . 16.1

Give a short answer stating reported LC retention time for O=C(O)c1cc(=O)c2cccc(O)c2[nH]1 [XANTHURENATE] . 2.57

Give a short answer stating reported LC retention time for CC(=O)NC(C)C(=O)O (configuration not stated) [N-ACETYLALANINE] . 0.853

Give a short answer stating reported LC retention time for CCCCCCCCCC(C)=O [2-UNDECANONE] . 8.4

Give a short answer stating reported LC retention time for O=C(O)CCCCCC(=O)O [6-CARBOXYHEXANOATE] . 3.89

Give a short answer stating reported LC retention time for CCCCCCC(=O)O [HEPTANOATE] . 5.36

Give a short answer stating reported LC retention time for CC(O)(CC(=O)O)C(=O)O (configuration not stated) [CITRAMALATE] . 0.86

Give a short answer stating reported LC retention time for O=S(=O)(O)Oc1c[nH]c2ccccc12 [INDOXYL SULFATE] . 3.57

Give a short answer stating reported LC retention time for Nc1nc2nc[nH]c2c(=O)[nH]1 [GUANINE] . 0.757

Give a short answer stating reported LC retention time for NC(Cc1cc(I)c(Oc2ccc(O)c(I)c2)c(I)c1)C(=O)O (configuration not stated) [LIOTHYRONINE] . 7.2

Give a short answer stating reported LC retention time for O=C(O)Cc1ccccc1O [2-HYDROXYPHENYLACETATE] . 3.28

Give a short answer stating reported LC retention time for Cc1cc2nc3c(=O)[nH]c(=O)nc-3n(CC(O)C(O)C(O)CO)c2cc1C (configuration not stated) [RIBOFLAVIN] . 4.41

Give a short answer stating reported LC retention time for O=C(O)C(O)c1ccccc1 (configuration not stated) [MANDELATE] . 3.27

Give a short answer stating reported LC retention time for CCCCCCCCCCCC=CCCCCC(=O)[O-] [PETROSELINATE] . 16.4

Give a short answer stating reported LC retention time for O=C(O)/C=C/c1ccccc1 [TRANS-CINNAMATE] . 6.86
